# credit: patent US20240270821A1

biological target: human GLP-1R (SNAP-GLP-1R expressed in HEK293 cells) (human) (UniProt P43220); test: cell-based or functional assay
Sequence (P43220 24-463): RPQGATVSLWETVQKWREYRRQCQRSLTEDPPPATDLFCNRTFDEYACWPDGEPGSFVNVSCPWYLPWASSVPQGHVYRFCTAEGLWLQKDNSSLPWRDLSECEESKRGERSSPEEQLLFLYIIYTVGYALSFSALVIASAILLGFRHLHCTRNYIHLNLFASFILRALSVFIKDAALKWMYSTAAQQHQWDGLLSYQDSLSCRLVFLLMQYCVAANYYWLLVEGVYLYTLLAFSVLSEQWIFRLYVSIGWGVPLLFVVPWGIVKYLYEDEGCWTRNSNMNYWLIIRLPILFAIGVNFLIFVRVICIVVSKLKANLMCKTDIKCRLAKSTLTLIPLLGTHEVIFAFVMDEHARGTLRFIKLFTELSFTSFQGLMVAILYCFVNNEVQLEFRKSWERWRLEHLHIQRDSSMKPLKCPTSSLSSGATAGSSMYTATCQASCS
Starred links: 1 amine or outer side, 2 acyl side, 3 side chain; linkers in the order of their positions; H or OH if unused. Non-standard residues stand in square brackets, D forms with d. Groups on a side chain read outwards from the residue. No end group written: not given here. *: point of attachment. C20 diacid = O=C(O)CCCCCCCCCCCCCCCCCCC(=O)*; C18 diacid = O=C(O)CCCCCCCCCCCCCCCCC(=O)*; Phe(4-CN) = N#Cc1ccc(C[C@H](N)C(=O)O)cc1; αMePhe(2-F) = C[C@](N)(Cc1ccccc1F)C(=O)O; γGlu = O=C(O)[C@H](CCC(=O)[*:2])N[*:1]; 4Pal = N[C@@H](Cc1ccncc1)C(=O)O; αMeL = CC(C)C[C@](C)(N)C(=O)O; Dab = NCC[C@H](N)C(=O)O; AEEA = NCCOCCOCC(=O)O; Aib = CC(C)(N)C(=O)O
Rule: GLP1R Internalization EC50 under 30 nM gives Not fulfilled, otherwise Fulfilled.

Req: Threshold query (GLP1R Internalization EC50 >= 30 nM) on YXQGTXTSDXXILLDXKAQXXFIEYLIEGGPSSGEPPPSGTGE (synthetic construct; SITE 2: note = 2-Aminoisobutyric Acid; SITE 6: note = alpha-methyl-2-fluoro-L-phenylalanine; SITE 10: note = 3-(4-Pyridyl)-L-alanine; SITE 11: note = alpha-methyl-L-serine; SITE 16: note = L-ornithine; SITE 17: note = Lysine is chemically modified through conjugation of the epsi) [Example 548]
Resp: Not fulfilled

Req: Same thing, different binder: YXQGTFTSDFSRXLDKKAQXAFIEYLIEXGESSGAPPPSGS (synthetic construct; SITE 2: note = 2-Aminoisobutyric Acid; SITE 13: note = alpha-methyl-leucine; SITE 17: note = Lysine is chemically modified through conjugation of the epsilon-amino group of the Lysine side chain with (2-[2-(2-Amino-ethoxy)-ethoxy]-acetyl)-(gamma-Glu)-CO-(CH2) 16-CO2H; SITE 20: n) [Example 230]
Resp: Fulfilled

Req: Same thing, different binder: Y[Aib]QGT[αMePhe(2-F)]TSD[Phe(4-CN)]SILLDKQAQK([AEEA-AEEA-γGlu-C20 diacid])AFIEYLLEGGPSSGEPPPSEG-NH2 [Example 321]
Resp: Not fulfilled

Req: Same thing, different binder: YXQGTFTSDFSXXLDKKAQXAFIEWLLEGGPSSGAPPPEGS (synthetic construct; SITE 2: note = 2-Aminoisobutyric Acid; SITE 12: note = L-ornithine; SITE 13: note = alpha-methyl-leucine; SITE 17: note = Lysine is chemically modified through conjugation of the epsilon-amino group of the Lysine side chain with (2-[2-(2-Amino-ethoxy)-ethoxy]-acetyl)-(gamma-Glu)) [Example 121]
Resp: Fulfilled

Req: Same thing, different binder: YXQGTFTSDFSXXLDKKAQXAFIEYLLEXGHSSGAPPPSGS (synthetic construct; SITE 2: note = 2-Aminoisobutyric Acid; SITE 12: note = L-ornithine; SITE 13: note = alpha-methyl-leucine; SITE 17: note = Lysine is chemically modified through conjugation of the epsilon-amino group of the Lysine side chain with (2-[2-(2-Amino-ethoxy)-ethoxy]-acetyl)-(gamma-Glu)) [Example 241]
Resp: Fulfilled

Req: Same thing, different binder: YXQGTFTSDYSRXLDKKAQXAFIEYLLEGGESSGAPPPSGS (synthetic construct; SITE 2: note = 2-Aminoisobutyric Acid; SITE 13: note = alpha-methyl-leucine; SITE 17: note = Lysine is chemically modified through conjugation of the epsilon-amino group of the Lysine side chain with (2-[2-(2-Amino-ethoxy)-ethoxy]-acetyl)-(gamma-Glu)-CO-(CH2) 16-CO2H; SITE 20: n) [Example 361]
Resp: Fulfilled

Req: Same thing, different binder: YXQGTFTSDFSXXLDKKAQXAFIEWLLEGGTSSGAPPPSGE (synthetic construct; SITE 2: note = 2-Aminoisobutyric Acid; SITE 12: note = L-ornithine; SITE 13: note = alpha-methyl-leucine; SITE 17: note = Lysine is chemically modified through conjugation of the epsilon-amino group of the Lysine side chain with (2-[2-(2-Amino-ethoxy)-ethoxy]-acetyl)-(gamma-Glu)) [Example 175]
Resp: Fulfilled

Req: Same thing, different binder: Y[Aib]QGTFTSDYSI[αMeL]LDKQAAK([AEEA-AEEA-γGlu-C20 diacid])QFVEWLIA[Aib]GPSSGEPPPAEG-NH2 [Example 334]
Resp: Not fulfilled

Req: Same thing, different binder: YXQGTFTSDXSQXLDXKAQXQFIEXLIEGGPSSGEPPPSGSEE (non-natural residues, lipidated Lys, C-terminal amide; synthetic construct; SITE 2: note = 2-Aminoisobutyric Acid; SITE 10: note = 3-(4-Pyridyl)-L-alanine; SITE 13: note = alpha-methyl-leucine; SITE 16: note = L-ornithine; SITE 17: note = Lysine is chemically modified through conjugation of the epsilon-amino group of the Lysine side chain with (gamma-Gl)) [Example 1026]
Resp: Fulfilled

Req: Same thing, different binder: Y[Aib]QGTFTSDYSI[αMeL]LDKK([AEEA-γGlu-C20 diacid])AQRAFIEYLLEGGPSSGEPPPSEG-NH2 (not fully specified) [Example 289]
Resp: Not fulfilled

Req: Same thing, different binder: YXQGTFTSDXSXXLDKKAQXAFIEYLLAGGPSSGEPPPSGS (synthetic construct; SITE 2: note = 2-Aminoisobutyric Acid; SITE 10: note = 3-(4-Pyridyl)-L-alanine; SITE 12: note = L-ornithine; SITE 13: note = alpha-methyl-leucine; SITE 17: note = Lysine is chemically modified through conjugation of the epsilon-amino group of the Lysine side chain with (2-[2-(2-) [Example 154]
Resp: Fulfilled

Req: Same thing, different binder: YXQGTFTSDXSQXLDKKAQXAFIEYLIEXGESSGAPPPSGE (synthetic construct; SITE 2: note = 2-Aminoisobutyric Acid; SITE 10: note = 3-(4-Pyridyl)-L-alanine; SITE 13: note = alpha-methyl-leucine; SITE 17: note = Lysine is chemically modified through conjugation of the epsilon-amino group of the Lysine side chain with (2-[2-(2-Amino-ethoxy)-ethoxy]-acetyl)) [Example 227]
Resp: Fulfilled

Req: Same thing, different binder: YXQGTFTSDFSXXLDKKAQXAFIEWLLEGGHSSGAPPPEGS (synthetic construct; SITE 2: note = 2-Aminoisobutyric Acid; SITE 12: note = L-ornithine; SITE 13: note = alpha-methyl-leucine; SITE 17: note = Lysine is chemically modified through conjugation of the epsilon-amino group of the Lysine side chain with (2-[2-(2-Amino-ethoxy)-ethoxy]-acetyl)-(gamma-Glu)) [Example 126]
Resp: Fulfilled

Req: Same thing, different binder: YXQGTFTSDFSKXLDKKAQXAFIEYLIEXGESSGAPPPSGE (synthetic construct; SITE 2: note = 2-Aminoisobutyric Acid; SITE 13: note = alpha-methyl-leucine; SITE 17: note = Lysine is chemically modified through conjugation of the epsilon-amino group of the Lysine side chain with (2-[2-(2-Amino-ethoxy)-ethoxy]-acetyl)-(gamma-Glu)-CO-(CH2) 16-CO2H; SITE 20: n) [Example 217]
Resp: Not fulfilled

Req: Same thing, different binder: YXQGTFTSDFSXXLDKKAQXAFIEYLLEXGPSSGAPPPSGX (synthetic construct; SITE 2: note = 2-Aminoisobutyric Acid; SITE 12: note = L-ornithine; SITE 13: note = alpha-methyl-leucine; SITE 17: note = Lysine is chemically modified through conjugation of the epsilon-amino group of the Lysine side chain with (2-[2-(2-Amino-ethoxy)-ethoxy]-acetyl)-(gamma-Glu)) [Example 279]
Resp: Fulfilled

Req: Same thing, different binder: YXQGTFTSDFSXXLDKKAQXAFIEYLLEXGPSSGAPPPSGE (synthetic construct; SITE 2: note = 2-Aminoisobutyric Acid; SITE 12: note = L-ornithine; SITE 13: note = alpha-methyl-leucine; SITE 17: note = Lysine is chemically modified through conjugation of the epsilon-amino group of the Lysine side chain with (2-[2-(2-Amino-ethoxy)-ethoxy]-acetyl)-(gamma-Glu)) [Example 110]
Resp: Not fulfilled

Req: Same thing, different binder: YXQGTFTSDFSXXLDKKAQXAFIEWLLEGGESSGAPPPEGS (synthetic construct; SITE 2: note = 2-Aminoisobutyric Acid; SITE 12: note = L-ornithine; SITE 13: note = alpha-methyl-leucine; SITE 17: note = Lysine is chemically modified through conjugation of the epsilon-amino group of the Lysine side chain with (2-[2-(2-Amino-ethoxy)-ethoxy]-acetyl)-(gamma-Glu)) [Example 125]
Resp: Fulfilled

Req: Same thing, different binder: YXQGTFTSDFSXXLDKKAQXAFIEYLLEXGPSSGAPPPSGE (synthetic construct; SITE 2: note = 2-Aminoisobutyric Acid; SITE 12: note = L-ornithine; SITE 13: note = alpha-methyl-leucine; SITE 17: note = Lysine is chemically modified through conjugation of the epsilon-amino group of the Lysine side chain with (2-[2-(2-Amino-ethoxy)-ethoxy]-acetyl)2-(gamma-Glu)) [Example 111]
Resp: Fulfilled

Req: Same thing, different binder: Y[Aib]QGTFTSD[4Pal]S[Dab][αMeL]LDKK([AEEA-γGlu-C18 diacid])AQ[Aib]AFIEYLIE[Aib]GESSGAPPPSGS-NH2 [Example 188]
Resp: Fulfilled

Req: Same thing, different binder: Y[Aib]QGTFTSDYSI[αMeL]LDKIAAK([AEEA-AEEA-γGlu-C20 diacid])QFVQWLIE[Aib]GPSSGEPPPSEG-NH2 (ends and bridges not checked) [Example 323]
Resp: Not fulfilled

Req: Same thing, different binder: YXQGTFTSDFSRXLDKKAQXAFIEYLIEXGESSGAPPPSGE (synthetic construct; SITE 2: note = 2-Aminoisobutyric Acid; SITE 13: note = alpha-methyl-leucine; SITE 17: note = Lysine is chemically modified through conjugation of the epsilon-amino group of the Lysine side chain with (2-[2-(2-Amino-ethoxy)-ethoxy]-acetyl)-(gamma-Glu)-CO-(CH2) 16-CO2H; SITE 20: n) [Example 231]
Resp: Fulfilled

Req: Same thing, different binder: YXQGTFTSDXSKXLDKKAQXAFIEYLIAXGESSGAPPPSGS (synthetic construct; SITE 2: note = 2-Aminoisobutyric Acid; SITE 10: note = 3-(4-Pyridyl)-L-alanine; SITE 13: note = alpha-methyl-leucine; SITE 17: note = Lysine is chemically modified through conjugation of the epsilon-amino group of the Lysine side chain with (2-[2-(2-Amino-ethoxy)-ethoxy]-acetyl)) [Example 285]
Resp: Fulfilled
